Reference source: paper PMC10072319

tested on: HEK293 cells; test: Resazurin cell viability; settings: read-out: HEK293 CC50, 48 h, mean ± SD
quantityName: CC50 (µM)
Give bare numbers, in µM.

Request: Entry "O=C(/C=C/c1ccccc1)/C=C/c1ccccc1" needs its CC50 filled in; supply it.
Result: 8.33
